The measurements presented in this section are drawn from ChEMBL document CHEMBL4229500.

TARGET_OF_ASSAY: Transient receptor potential cation channel, subfamily V, member 3 (Rattus norvegicus)
Sequence (E9PU00 whole entry): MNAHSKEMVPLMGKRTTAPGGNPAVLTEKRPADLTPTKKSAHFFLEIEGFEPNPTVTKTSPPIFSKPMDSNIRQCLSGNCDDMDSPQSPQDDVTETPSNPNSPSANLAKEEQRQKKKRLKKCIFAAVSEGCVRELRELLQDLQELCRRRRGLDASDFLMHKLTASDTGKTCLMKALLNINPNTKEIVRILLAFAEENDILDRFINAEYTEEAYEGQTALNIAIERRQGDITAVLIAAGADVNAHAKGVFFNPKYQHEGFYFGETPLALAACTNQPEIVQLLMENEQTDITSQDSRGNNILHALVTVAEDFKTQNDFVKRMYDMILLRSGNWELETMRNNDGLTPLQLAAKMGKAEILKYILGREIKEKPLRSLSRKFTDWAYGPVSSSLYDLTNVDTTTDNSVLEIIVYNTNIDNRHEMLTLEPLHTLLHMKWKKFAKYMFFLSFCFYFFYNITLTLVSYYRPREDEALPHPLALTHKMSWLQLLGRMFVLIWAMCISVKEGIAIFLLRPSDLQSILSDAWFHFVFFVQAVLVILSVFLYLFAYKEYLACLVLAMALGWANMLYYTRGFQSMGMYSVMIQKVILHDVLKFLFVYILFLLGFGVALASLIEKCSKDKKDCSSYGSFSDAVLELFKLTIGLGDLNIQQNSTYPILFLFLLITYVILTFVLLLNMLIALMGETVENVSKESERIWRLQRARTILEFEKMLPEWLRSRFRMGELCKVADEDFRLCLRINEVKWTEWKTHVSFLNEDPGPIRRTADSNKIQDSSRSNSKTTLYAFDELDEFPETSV
METHOD_NOTES: Antagonist activity at […] expressed in HEK293 cells assessed as inhibition of thymol-induced increase in intracellular calcium level pretreated for 5 mins followed by thymol addition by Fluo-4-AM dye based fluorescence assay
RECORDED_METRIC: IC50

Q. Request the reported IC50 associated with CCCCCc1cc(O)c2c(c1)O[C@]1(C2)[C@@H](C)CCCC1(C)C
A. 12.8 µM

Q. Again, but for CCCCCc1cc(O)c2c(c1)O[C@]1(C2)[C@H](C)CCCC1(C)C
A. > 50 µM

Q. Again, but for CCCCCc1cc(O)c2c(c1)O[C@]1(C)CC[C@@H](I)C(C)(C)[C@H]1C2
A. > 50 µM

Q. Again, but for CCCCCc1cc(O)c2c(c1)O[C@]1(C)CCCC(C)(C)[C@H]1C2
A. > 50 µM

Q. Again, but for CCCCCc1cc(O)c2c(c1)O[C@@]1(C)CCCC(C)(C)[C@H]1C2
A. 8 µM

Q. Again, but for CCCCCc1cc(O)c2c(c1)OC(C)(CCCC(C)(C)c1ccc(C)cc1)CC2 (stereo unspecified)
A. > 50 µM

---

TARGET_OF_ASSAY: Transient receptor potential cation channel subfamily V member 1 (Homo sapiens, UniProt Q8NER1)
Sequence (Q8NER1 whole entry): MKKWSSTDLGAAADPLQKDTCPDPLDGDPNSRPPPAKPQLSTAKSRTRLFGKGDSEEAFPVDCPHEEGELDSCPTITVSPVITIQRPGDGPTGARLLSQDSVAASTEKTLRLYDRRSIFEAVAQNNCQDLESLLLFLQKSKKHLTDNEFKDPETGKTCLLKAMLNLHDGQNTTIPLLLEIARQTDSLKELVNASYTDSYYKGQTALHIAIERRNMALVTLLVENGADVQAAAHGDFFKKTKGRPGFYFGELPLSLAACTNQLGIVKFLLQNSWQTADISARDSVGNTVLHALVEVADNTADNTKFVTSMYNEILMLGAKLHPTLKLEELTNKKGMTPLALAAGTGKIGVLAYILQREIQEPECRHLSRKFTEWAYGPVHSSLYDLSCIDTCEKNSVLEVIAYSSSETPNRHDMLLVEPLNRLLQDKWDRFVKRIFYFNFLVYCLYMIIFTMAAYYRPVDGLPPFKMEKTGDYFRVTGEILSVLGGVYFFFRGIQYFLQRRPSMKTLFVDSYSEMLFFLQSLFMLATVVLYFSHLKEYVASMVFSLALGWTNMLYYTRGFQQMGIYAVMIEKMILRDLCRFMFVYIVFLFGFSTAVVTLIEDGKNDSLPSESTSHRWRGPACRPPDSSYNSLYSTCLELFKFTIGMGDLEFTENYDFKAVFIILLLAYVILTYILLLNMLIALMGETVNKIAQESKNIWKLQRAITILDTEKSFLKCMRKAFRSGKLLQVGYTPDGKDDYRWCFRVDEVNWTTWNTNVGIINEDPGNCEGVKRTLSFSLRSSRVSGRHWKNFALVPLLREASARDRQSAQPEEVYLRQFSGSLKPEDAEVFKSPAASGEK
METHOD_NOTES: Antagonist activity at human TRPV1 expressed in HEK293 cells assessed as inhibition of capsaicin-induced increase in intracellular calcium level pretreated for 5 mins followed by capsaicin addition by Fluo-4-AM dye based fluorescence assay
RECORDED_METRIC: IC50 (µM)
Return type: number; implicit unit µM.

Q. Request the reported IC50 associated with CCCCCc1cc(O)c2c(c1)O[C@]1(C2)[C@@H](C)CCCC1(C)C
A. 7.1

Q. Again, but for CCCCCc1cc(O)c2c(c1)O[C@@]1(C)CCCC(C)(C)[C@H]1C2
A. 5.9

Q. Again, but for CCCCCc1cc(O)c2c(c1)O[C@]1(C2)[C@H](C)CCCC1(C)C
A. 37

---

Please provide measured Efficacy for the entries that follow.
TARGET_OF_ASSAY: Transient receptor potential cation channel subfamily V member 2 (Rattus norvegicus) (UniProt Q9WUD2)
METHOD_NOTES: Agonist activity at rat TRPV2 expressed in HEK293 cells assessed as increase in intracellular calcium level by Fluo-4-AM dye based fluorescence assay relative to ionomycin
Type: cell-based
Return type: number; implicit unit %.

Q. Request the reported Efficacy associated with CCCCCc1cc(O)c2c(c1)O[C@]1(C2)[C@H](C)CCCC1(C)C
A. 27.5

Q. Again, but for CCCCCc1cc(O)c2c(c1)O[C@]1(C)CCCC(C)(C)[C@H]1C2
A. 41.3

Q. Again, but for CCCCCc1cc(O)c2c(c1)O[C@@]1(C)CCCC(C)(C)[C@H]1C2
A. 31.7

Q. Again, but for CCCCCc1cc(O)c2c(c1)O[C@]1(C2)[C@@H](C)CCCC1(C)C
A. 37.7

---

TARGET_OF_ASSAY: Transient receptor potential cation channel subfamily M member 8 (Rattus norvegicus, UniProt Q8R455)
Sequence (Q8R455 whole entry): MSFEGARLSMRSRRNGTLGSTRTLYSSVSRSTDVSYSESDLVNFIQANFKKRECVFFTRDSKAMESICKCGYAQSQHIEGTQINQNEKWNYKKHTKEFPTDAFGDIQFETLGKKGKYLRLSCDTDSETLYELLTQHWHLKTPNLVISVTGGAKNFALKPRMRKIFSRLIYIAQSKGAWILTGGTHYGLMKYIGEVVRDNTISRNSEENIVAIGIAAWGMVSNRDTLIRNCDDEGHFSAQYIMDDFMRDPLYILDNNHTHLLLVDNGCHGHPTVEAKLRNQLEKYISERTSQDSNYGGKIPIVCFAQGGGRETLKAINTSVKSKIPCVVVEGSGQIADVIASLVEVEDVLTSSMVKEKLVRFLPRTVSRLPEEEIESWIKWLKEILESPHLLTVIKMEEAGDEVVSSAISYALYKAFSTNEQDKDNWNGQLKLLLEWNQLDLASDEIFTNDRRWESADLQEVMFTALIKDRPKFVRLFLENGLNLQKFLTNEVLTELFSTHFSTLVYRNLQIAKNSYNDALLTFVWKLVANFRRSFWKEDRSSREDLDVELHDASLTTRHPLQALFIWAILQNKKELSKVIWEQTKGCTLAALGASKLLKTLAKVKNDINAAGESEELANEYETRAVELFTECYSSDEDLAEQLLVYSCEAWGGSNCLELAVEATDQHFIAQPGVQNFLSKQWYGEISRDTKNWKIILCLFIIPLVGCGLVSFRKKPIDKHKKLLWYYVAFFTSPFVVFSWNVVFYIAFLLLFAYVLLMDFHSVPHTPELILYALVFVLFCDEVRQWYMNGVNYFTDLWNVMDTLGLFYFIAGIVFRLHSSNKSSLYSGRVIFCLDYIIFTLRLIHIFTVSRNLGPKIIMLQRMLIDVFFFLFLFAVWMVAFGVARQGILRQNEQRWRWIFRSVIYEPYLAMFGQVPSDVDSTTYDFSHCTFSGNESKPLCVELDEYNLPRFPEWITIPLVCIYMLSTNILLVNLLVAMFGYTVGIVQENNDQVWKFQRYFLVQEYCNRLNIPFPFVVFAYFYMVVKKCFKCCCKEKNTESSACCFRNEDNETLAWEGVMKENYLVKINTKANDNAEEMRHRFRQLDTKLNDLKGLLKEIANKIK
METHOD_NOTES: Antagonist activity at rat TRPM8 expressed in HEK293 cells assessed as inhibition of icilin-induced increase in intracellular calcium level pretreated for 5 mins followed by icilin addition by Fluo-4-AM dye based fluorescence assay
pIC50: −log10 of the molar value.
Please provide measured pIC50 for the entries that follow.

Q. Request the reported pIC50 associated with CCCCCc1cc(O)c2c(c1)O[C@]1(C2)[C@@H](C)CCCC1(C)C
A. < 4.30

Q. Again, but for CCCCCc1cc(O)c2c(c1)O[C@]1(C)CCCC(C)(C)[C@H]1C2
A. < 4.00

Q. Again, but for CCCCCc1cc(O)c2c(c1)OC(C)(CCCC(C)(C)c1ccc(C)cc1)CC2 (stereo unspecified)
A. < 4.00

Q. Again, but for CCCCCc1cc(O)c2c(c1)O[C@]1(C2)[C@H](C)CCCC1(C)C
A. < 4.30

Q. Again, but for CCCCCc1cc(O)c2c(c1)O[C@]1(C)CC[C@@H](I)C(C)(C)[C@H]1C2
A. 5.14

Q. Again, but for CCCCCc1cc(O)c2c(c1)O[C@@]1(C)CCCC(C)(C)[C@H]1C2
A. 4.77

---

Please provide measured pIC50 for the entries that follow.
TARGET_OF_ASSAY: Transient receptor potential cation channel subfamily V member 2 (Rattus norvegicus, UniProt Q9WUD2)
METHOD_NOTES: Antagonist activity at rat TRPV2 expressed in HEK293 cells assessed as inhibition of LPC-induced increase in intracellular calcium level pretreated for 5 mins followed by LPC addition by Fluo-4-AM dye based fluorescence assay
Please note pIC50 is a logarithmic value: minus log10 of concentration in mol/L. Answer with that number alone.

Q. Request the reported pIC50 associated with CCCCCc1cc(O)c2c(c1)O[C@]1(C2)[C@@H](C)CCCC1(C)C
A. 4.86

Q. Again, but for CCCCCc1cc(O)c2c(c1)O[C@]1(C)CC[C@@H](I)C(C)(C)[C@H]1C2
A. 5.64

Q. Again, but for CCCCCc1cc(O)c2c(c1)OC(C)(CCCC(C)(C)c1ccc(C)cc1)CC2 (stereo unspecified)
A. 5.35

---

Please provide measured Efficacy for the entries that follow.
TARGET_OF_ASSAY: Transient receptor potential cation channel subfamily V member 1 (Homo sapiens)
METHOD_NOTES: Agonist activity at human TRPV1 expressed in HEK293 cells assessed as increase in intracellular calcium level by Fluo-4-AM dye based fluorescence assay relative to ionomycin
Type: cell-based

Q. Request the reported Efficacy associated with CCCCCc1cc(O)c2c(c1)O[C@]1(C)CCCC(C)(C)[C@H]1C2
A. < 10%

Q. Again, but for CCCCCc1cc(O)c2c(c1)O[C@]1(C)CC[C@@H](I)C(C)(C)[C@H]1C2
A. < 10%

Q. Again, but for CCCCCc1cc(O)c2c(c1)OC(C)(CCCC(C)(C)c1ccc(C)cc1)CC2 (stereo not drawn)
A. < 10%

---

TARGET_OF_ASSAY: Transient receptor potential cation channel subfamily V member 4 (Rattus norvegicus)
Sequence (Q9ERZ8 whole entry): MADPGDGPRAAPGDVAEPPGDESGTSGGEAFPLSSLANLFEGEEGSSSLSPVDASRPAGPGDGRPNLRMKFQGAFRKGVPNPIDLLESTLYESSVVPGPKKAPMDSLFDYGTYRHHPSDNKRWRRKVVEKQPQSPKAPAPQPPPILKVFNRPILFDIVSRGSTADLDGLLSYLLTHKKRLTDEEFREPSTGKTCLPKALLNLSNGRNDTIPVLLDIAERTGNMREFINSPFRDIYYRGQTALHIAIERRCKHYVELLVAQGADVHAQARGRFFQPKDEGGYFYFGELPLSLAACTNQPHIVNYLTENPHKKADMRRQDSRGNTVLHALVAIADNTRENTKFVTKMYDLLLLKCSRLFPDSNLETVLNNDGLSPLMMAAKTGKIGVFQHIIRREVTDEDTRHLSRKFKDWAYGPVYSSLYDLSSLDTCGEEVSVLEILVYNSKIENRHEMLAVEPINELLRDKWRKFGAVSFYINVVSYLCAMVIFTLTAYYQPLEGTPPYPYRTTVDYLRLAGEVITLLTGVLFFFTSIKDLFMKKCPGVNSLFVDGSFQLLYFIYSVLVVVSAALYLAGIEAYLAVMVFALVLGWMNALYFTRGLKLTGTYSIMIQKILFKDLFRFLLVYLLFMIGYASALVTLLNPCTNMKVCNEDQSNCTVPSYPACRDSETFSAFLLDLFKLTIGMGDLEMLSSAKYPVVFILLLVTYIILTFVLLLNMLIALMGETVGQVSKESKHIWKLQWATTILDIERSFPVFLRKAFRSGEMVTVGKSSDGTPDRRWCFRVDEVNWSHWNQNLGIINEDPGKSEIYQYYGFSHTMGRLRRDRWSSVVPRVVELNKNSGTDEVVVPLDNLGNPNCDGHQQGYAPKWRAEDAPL
METHOD_NOTES: Antagonist activity at […] expressed in HEK293 cells assessed as inhibition of GSK1016790A-induced increase in intracellular calcium level pretreated for 5 mins followed by GSK1016790A addition by Fluo-4-AM dye based fluorescence assay
pIC50: −log10 of the molar value.
RECORDED_METRIC: pIC50

Q. Request the reported pIC50 associated with CCCCCc1cc(O)c2c(c1)O[C@]1(C)CCCC(C)(C)[C@H]1C2
A. < 4.00

Q. Again, but for CCCCCc1cc(O)c2c(c1)OC(C)(CCCC(C)(C)c1ccc(C)cc1)CC2 (stereo not drawn)
A. < 4.00

Q. Again, but for CCCCCc1cc(O)c2c(c1)O[C@]1(C)CC[C@@H](I)C(C)(C)[C@H]1C2
A. < 4.00

---

TARGET_OF_ASSAY: Transient receptor potential cation channel subfamily V member 1 (Homo sapiens, UniProt Q8NER1)
METHOD_NOTES: Antagonist activity at human TRPV1 expressed in HEK293 cells assessed as inhibition of capsaicin-induced increase in intracellular calcium level pretreated for 5 mins followed by capsaicin addition by Fluo-4-AM dye based fluorescence assay
Please provide measured IC50 for the entries that follow.

Q. Request the reported IC50 associated with CCCCCc1cc(O)c2c(c1)OC(C)(CCCC(C)(C)c1ccc(C)cc1)CC2 (stereo not drawn)
A. > 50 µM

Q. Again, but for CCCCCc1cc(O)c2c(c1)O[C@]1(C)CCCC(C)(C)[C@H]1C2
A. > 100 µM

Q. Again, but for CCCCCc1cc(O)c2c(c1)O[C@]1(C)CC[C@@H](I)C(C)(C)[C@H]1C2
A. > 100 µM

---

TARGET_OF_ASSAY: Transient receptor potential cation channel subfamily V member 2 (Rattus norvegicus, UniProt Q9WUD2)
Sequence (Q9WUD2 whole entry): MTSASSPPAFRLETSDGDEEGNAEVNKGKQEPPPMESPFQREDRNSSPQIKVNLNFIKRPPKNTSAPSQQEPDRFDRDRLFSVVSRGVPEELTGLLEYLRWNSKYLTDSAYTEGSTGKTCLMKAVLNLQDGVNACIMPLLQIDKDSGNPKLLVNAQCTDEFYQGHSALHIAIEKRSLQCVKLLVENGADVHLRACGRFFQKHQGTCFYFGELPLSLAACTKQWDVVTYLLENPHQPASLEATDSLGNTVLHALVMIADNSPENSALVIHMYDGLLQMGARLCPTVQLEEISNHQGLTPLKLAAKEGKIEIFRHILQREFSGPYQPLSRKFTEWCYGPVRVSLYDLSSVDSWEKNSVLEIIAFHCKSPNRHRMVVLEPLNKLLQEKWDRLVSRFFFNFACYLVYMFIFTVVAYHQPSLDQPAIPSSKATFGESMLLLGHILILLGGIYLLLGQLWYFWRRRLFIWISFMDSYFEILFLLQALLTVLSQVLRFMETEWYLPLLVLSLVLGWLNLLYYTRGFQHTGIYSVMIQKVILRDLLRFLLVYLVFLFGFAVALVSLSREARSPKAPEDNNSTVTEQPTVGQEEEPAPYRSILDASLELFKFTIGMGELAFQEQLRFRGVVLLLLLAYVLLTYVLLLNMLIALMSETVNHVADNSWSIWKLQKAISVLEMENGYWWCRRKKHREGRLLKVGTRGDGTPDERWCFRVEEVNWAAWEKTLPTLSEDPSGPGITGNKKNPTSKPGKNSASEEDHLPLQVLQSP
METHOD_NOTES: Antagonist activity at rat TRPV2 expressed in HEK293 cells assessed as inhibition of LPC-induced increase in intracellular calcium level pretreated for 5 mins followed by LPC addition by Fluo-4-AM dye based fluorescence assay
RECORDED_METRIC: IC50

Q. Request the reported IC50 associated with CCCCCc1cc(O)c2c(c1)O[C@@]1(C)CCCC(C)(C)[C@H]1C2
A. > 100 µM

Q. Again, but for CCCCCc1cc(O)c2c(c1)O[C@]1(C2)[C@H](C)CCCC1(C)C
A. > 50 µM

Q. Again, but for CCCCCc1cc(O)c2c(c1)O[C@]1(C)CCCC(C)(C)[C@H]1C2
A. > 100 µM
